Values were extracted from ChEMBL document CHEMBL2029278.

# subjectOfTest: Neuraminidase (Influenza A virus, UniProt B4URF0)
# Sequence (B4URF0 whole entry): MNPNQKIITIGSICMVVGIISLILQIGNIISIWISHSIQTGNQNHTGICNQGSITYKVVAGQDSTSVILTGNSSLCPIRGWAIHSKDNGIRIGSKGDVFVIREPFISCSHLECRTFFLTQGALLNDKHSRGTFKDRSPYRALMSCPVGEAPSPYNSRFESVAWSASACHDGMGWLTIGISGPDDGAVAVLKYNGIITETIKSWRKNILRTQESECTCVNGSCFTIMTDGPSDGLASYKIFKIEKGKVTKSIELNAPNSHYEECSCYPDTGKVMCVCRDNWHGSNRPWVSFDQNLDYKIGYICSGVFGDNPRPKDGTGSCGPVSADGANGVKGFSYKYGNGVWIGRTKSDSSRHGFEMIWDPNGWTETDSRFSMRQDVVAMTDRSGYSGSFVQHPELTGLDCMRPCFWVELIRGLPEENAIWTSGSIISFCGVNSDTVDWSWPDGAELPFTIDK
# measurementDescription: Inhibition of Influenza A virus H1N1 neuraminidase using 4-MU-NANA as substrate by fluorescence assay
Overview of reported pIC50 across a group of compounds:
The meaning of pIC50 here: minus log10 of the concentration in molar units.

Here are 4 compounds together with their reported answers.
COc1ccc(O)c2c(=O)c3cc(O)ccc3oc12 3.96
O=c1c2cc(O)ccc2oc2cccc(O)c12 3.99
O=c1c2cc(O)ccc2oc2cc(O)cc(O)c12 3.96
O=c1c2cccc(O)c2oc2cc(O)c(O)c(O)c12 3.99

Could you now look at the following compound, please?
### Prompt Param item = `O=c1c2ccccc2oc2cc(O)cc(O)c12` ; retrieve measured pIC50.
### Response 3.99
